# tgt: MASP-2 CCP2-SP (Homo sapiens (Human))
# experimental_protocol: MASP-2 co-crystallization, X-ray crystallography and structure analysis (H-bonds, van der Waals contacts)
# Set-up: unit not given beside the values
# test_context: Table A5-1 pharmacophore: distance between elements, S2/S1 region
Counter-ions that a name gives are not always drawn.
quantity_measured: d(H4,O1)
Reply briefly: the number, and no unit.

Report d(H4,O1), nothing else, for this compound: `Cc1cnc(NCCc2ccccc2)c(=O)n1CC(=O)NCc1ccc2nc(N)[nH]c2c1` 3.14

Report d(H4,O1), nothing else, for this compound: C[C@H](NC(=O)[C@H]1C[C@@H](c2ccccc2)CCN1)C(=O)NCc1cc(Cl)ccc1O.Cl [1078_12] 3.08

Report d(H4,O1), nothing else, for this compound: C[C@H](NC(=O)[C@H]1C[C@@H](c2ccccc2)CCN1)C(=O)NCc1cc(Cl)ccc1O.Cl [1078_4] 2.27

Report d(H4,O1), nothing else, for this compound: C[C@H](NC(=O)[C@H]1C[C@@H](c2ccccc2)CCN1)C(=O)NCc1cc(Cl)ccc1O.Cl [1078_6] 2.75

Report d(H4,O1), nothing else, for this compound: C[C@H](NC(=O)[C@H]1C[C@@H](c2ccccc2)CCN1)C(=O)NCc1cc(Cl)ccc1O.Cl [1078_15] 2.66

Report d(H4,O1), nothing else, for this compound: N=C(N)c1ccc(CNC(=O)C(CF)NC(=O)[C@H](N)CCc2ccccc2)cc1 (stereo partly drawn) [compound 1050, Dihydrochloride] 4.58

Report d(H4,O1), nothing else, for this compound: Cc1nc(N)ccc1CNC(=O)[C@H](C)NC(=O)[C@H]1C[C@H](Cc2ccccc2-c2ccccc2)CN1 [compound 1373, Di-trifluoroacetate salt] 4.40

Report d(H4,O1), nothing else, for this compound: `C[C@H](NC(=O)[C@@H](CCc1ccccc1)NCCCc1ccc(O)cc1)C(=O)NCc1ccc(C(=N)N)cc1.Cl.Cl` 4.89

Report d(H4,O1), nothing else, for this compound: C[C@H](NC(=O)[C@H]1C[C@@H](c2ccccc2)CN1)C(=O)NCc1ccc2c(N)nccc2c1.Cl.Cl [1089_A] 3.13

Report d(H4,O1), nothing else, for this compound: CC(=O)Nc1ccc(CCNC(CCc2ccccc2)C(=O)NC(C)C(=O)NCc2ccc(C(=N)N)cc2)cc1.Cl.Cl (stereo not drawn) [1345_1] 4.08

Report d(H4,O1), nothing else, for this compound: `Cc1nc(N)ccc1CNC(=O)[C@H](C)NC(=O)c1cc(Cc2ccccc2)n[nH]1` 4.37

Report d(H4,O1), nothing else, for this compound: `Cc1nc(N)ccc1CNC(=O)[C@H](C)NC(=O)[C@H]1C[C@@H](Cc2ccccc2)CCN1` 4.38

Report d(H4,O1), nothing else, for this compound: `Cc1nc(N)ccc1CNC(=O)[C@H](C)NC(=O)[C@H]1C[C@H](Cc2ccc(-c3ccccc3)cc2)CN1` 4.47

Report d(H4,O1), nothing else, for this compound: `C[C@H](NC(=O)[C@H](N)CCc1cc(Cl)cc(Cl)c1)C(=O)NCc1ccc(C(=N)N)cc1` 4.85

Report d(H4,O1), nothing else, for this compound: CC(NC(=O)C(CCc1ccccc1)NCc1ccc(C(=O)N2CCOCC2)cc1)C(=O)NCc1ccc(C(=N)N)cc1.Cl.Cl (stereo not drawn) 6.25

###

# tgt: MASP-2 CCP2-SP (Homo sapiens (Human), UniProt O00187)
# Sequence (O00187 445-686): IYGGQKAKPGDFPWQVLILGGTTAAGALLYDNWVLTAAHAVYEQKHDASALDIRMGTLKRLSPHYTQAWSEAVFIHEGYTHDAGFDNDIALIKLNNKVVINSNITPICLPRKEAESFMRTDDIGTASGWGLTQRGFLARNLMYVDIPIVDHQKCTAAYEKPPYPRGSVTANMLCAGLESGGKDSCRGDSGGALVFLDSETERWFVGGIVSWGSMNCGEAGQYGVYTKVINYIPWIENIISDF
# Sequence (O00187 364-432 partner): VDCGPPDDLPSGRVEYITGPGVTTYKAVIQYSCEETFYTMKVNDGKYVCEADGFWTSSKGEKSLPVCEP
# experimental_protocol: MASP-2 co-crystallization, X-ray crystallography and structure analysis (H-bonds, van der Waals contacts)
# Parameters: unit not given beside the values
# test_context: Table A2-11
quantity_measured: van der Waals contact distance, SER 654 C to compound atom
Reply briefly: the number, and no unit.

Report van der Waals contact distance, SER 654 C to compound atom, nothing else, for this compound: `Cc1nc(N)ccc1CNC(=O)[C@H](C)NC(=O)[C@H]1C[C@H](Cc2cccc(-c3ccccc3)c2)CN1` 3.59

Report van der Waals contact distance, SER 654 C to compound atom, nothing else, for this compound: `C[C@H](NC(=O)[C@H]1Cc2c([nH]c3ccccc23)CN1)C(=O)NCc1ccc(C(=N)N)cc1` 3.73

Report van der Waals contact distance, SER 654 C to compound atom, nothing else, for this compound: `Cc1cnc(NCCc2ccccc2)c(=O)n1CC(=O)NCc1ccc2nc(N)[nH]c2c1` 3.88

Report van der Waals contact distance, SER 654 C to compound atom, nothing else, for this compound: `C[C@H](NC(=O)[C@H](N)CCCc1ccccc1)C(=O)NCc1ccc(C(=N)N)cc1` 3.36

Report van der Waals contact distance, SER 654 C to compound atom, nothing else, for this compound: `CNC(=O)c1ccc2c(=O)n(Cc3ccccc3)c(=O)n(CC(=O)NCc3ccc(C(=N)N)cc3)c2c1` 3.79

Report van der Waals contact distance, SER 654 C to compound atom, nothing else, for this compound: C[C@H](NC(=O)[C@H]1C[C@@H](c2ccccc2)CCN1)C(=O)NCc1ccc(C(=N)N)cc1 (stereo in doubt) 3.78

###

# tgt: MASP-2 CCP2-SP (Homo sapiens (Human), UniProt O00187)
# experimental_protocol: MASP-2 co-crystallization, X-ray crystallography and structure analysis (H-bonds, van der Waals contacts);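 as to Ligand-pharmacophore element distance, pharmacophore element CA2: distance from averaged pharmacophore element to bound ligand; missing value means element absent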
# test_context: Table A4-1; element CA2
# From the text: This example illustrates the preparation of recombinant MASP-2 protein, based on UniProt O00187, human mannan-binding lectin serine protease 2. Expression constructs for human MASP-2 CCP2-SP and CCP2-SP-6HIS were generated for recombinant expression in E. coli cells. […]
Where a name gives a salt, the structure may show the parent alone.
Lab note: compare Ligand-pharmacophore element distance, pharmacophore element CA2 against 0.3. Equal or greater, write Condition met. Smaller, write Condition not met.

Hello, I need to know if C[C@H](NC(=O)[C@H]1C[C@@H](c2ccccc2)CN1)C(=O)NCc1ccc2c(N)nccc2c1.Cl.Cl [1089_B] has measured Ligand-pharmacophore element distance, pharmacophore element CA2 not below 0.3. Thanks! Condition not met

Hello, I need to know if Cc1nc(N)ccc1CNC(=O)[C@H](C)NC(=O)[C@H]1C[C@H](Cc2cc(-c3ccccc3)cs2)CN1 [compound 1399, Dihydrochloride] has measured Ligand-pharmacophore element distance, pharmacophore element CA2 not below 0.3. Thanks! Condition met

Hello, I need to know if C[C@H](NC(=O)[C@H](N)C1Cc2ccccc2C1)C(=O)NCc1ccc2c(N)nccc2c1.Cl.Cl [1088_B] has measured Ligand-pharmacophore element distance, pharmacophore element CA2 not below 0.3. Thanks! Condition not met

Hello, I need to know if Cc1nc(N)ccc1CNC(=O)[C@H](C)NC(=O)[C@H]1C[C@@H](Cc2ccccc2)CCN1 [compound 1353] has measured Ligand-pharmacophore element distance, pharmacophore element CA2 not below 0.3. Thanks! Condition met

Hello, I need to know if C[C@H](NC(=O)[C@H](N)CCc1cc(Cl)cc(Cl)c1)C(=O)NCc1ccc(C(=N)N)cc1 [compound 1118] has measured Ligand-pharmacophore element distance, pharmacophore element CA2 not below 0.3. Thanks! Condition met

Hello, I need to know if CC(NC(=O)C(CCc1ccccc1)NCc1ccc(C(=O)N2CCOCC2)cc1)C(=O)NCc1ccc(C(=N)N)cc1.Cl.Cl (stereo not shown) [1153_A] has measured Ligand-pharmacophore element distance, pharmacophore element CA2 not below 0.3. Thanks! Condition met

Hello, I need to know if Cc1nc(N)ccc1CNC(=O)[C@H](C)NC(=O)[C@H]1C[C@@H](c2cccc3ccccc23)CCN1.Cl.Cl [1297_4] has measured Ligand-pharmacophore element distance, pharmacophore element CA2 not below 0.3. Thanks! Condition not met

###

# tgt: MASP-2 CCP2-SP (Homo sapiens (Human))
# experimental_protocol: MASP-2 co-crystallization, X-ray crystallography and structure analysis (H-bonds, van der Waals contacts)
# test_context: Table A7-1; between pharmacophore elements of the bound compound
Kindly state Pharmacophore torsion angle a(CA6, O1, H4, O2) for each of the entries shown.
Reply briefly: the number, and no unit.

Report Pharmacophore torsion angle a(CA6, O1, H4, O2), nothing else, for this compound: `CNC(=O)c1ccc2c(=O)n(Cc3ccccc3)c(=O)n(CC(=O)NCc3ccc(C(=N)N)cc3)c2c1` −9.94

Report Pharmacophore torsion angle a(CA6, O1, H4, O2), nothing else, for this compound: `C[C@H](NC(=O)[C@@H](CCc1ccccc1)NCc1ccc(N2CCOCC2)cc1)C(=O)NCc1ccc(C(=N)N)cc1` 55.30

Report Pharmacophore torsion angle a(CA6, O1, H4, O2), nothing else, for this compound: `Cc1cnc(NCCc2ccccc2)c(=O)n1CC(=O)NCc1ccc2nc(N)[nH]c2c1` −19.90

Report Pharmacophore torsion angle a(CA6, O1, H4, O2), nothing else, for this compound: `O=c1oc(-c2ccccc2[N+](=O)[O-])nc2ccccc12` 43.29

###

# tgt: MASP-2 CCP2-SP (Homo sapiens (Human), UniProt O00187)
# experimental_protocol: MASP-2 co-crystallization, X-ray crystallography and structure analysis (H-bonds, van der Waals contacts)
# test_context: Table A8-6; nearest protein atom in cell to the left
Kindly state Pharmacophore protein distance to GLY_528 for each of the entries shown.
Reply briefly: the number, and no unit.

Report Pharmacophore protein distance to GLY_528, nothing else, for this compound: CC(NC(=O)C(CCc1ccccc1)NCc1ccc(C(=O)N2CCOCC2)cc1)C(=O)NCc1ccc(C(=N)N)cc1.Cl.Cl (stereo not shown) 3.41

Report Pharmacophore protein distance to GLY_528, nothing else, for this compound: C[C@H](NC(=O)[C@H](N)C1Cc2ccccc2C1)C(=O)NCc1ccc2c(N)nccc2c1.Cl.Cl [1088_A] 3.66

Report Pharmacophore protein distance to GLY_528, nothing else, for this compound: C[C@H](NC(=O)[C@H]1Cc2c([nH]c3ccccc23)CN1)C(=O)NCc1ccc(C(=N)N)cc1.Cl.Cl [1097_2] 3.52

Report Pharmacophore protein distance to GLY_528, nothing else, for this compound: `C[C@H](NC(=O)[C@H]1C[C@H](c2ccccc2)CN1)C(=O)NCc1ccc2c(N)nccc2c1` 3.61

Report Pharmacophore protein distance to GLY_528, nothing else, for this compound: C[C@H](NC(=O)[C@H]1C[C@@H](c2ccccc2)CCN1)C(=O)NCc1ccc(C(=N)N)cc1 (stereo in doubt) 3.56

Report Pharmacophore protein distance to GLY_528, nothing else, for this compound: C[C@H](NC(=O)[C@H](N)CCc1ccccc1)C(=O)NCc1ccc(N)nc1.Cl.Cl [1007_2] 3.72

Report Pharmacophore protein distance to GLY_528, nothing else, for this compound: C[C@H](NC(=O)[C@H](N)CCc1ccccc1)C(=O)NCc1ccc(N)nc1.Cl.Cl [1007_1] 3.76
